test-description: RP TLC on non-impregnated control plates
Format: physicochemical
cond: Table S4, non-impregnated RP plate; acetonitrile/acetate buffer pH 7.4/methanol 60:20:20
Please use true (1) for CRP (Rf, control RP plate) under 0.7 and false (0) for everything else, ties included.

In: Does CCCN1C[C@H](CSC)C[C@@H]2c3cccc4[nH]cc(c34)C[C@H]21 [pergolide] have CRP (Rf, control RP plate) strictly under 0.7?
Out: true (1)

In: Does the reported CRP (Rf, control RP plate) of the following molecule sit strictly below 0.7? OCCN1CCN(CCC=C2c3ccccc3Sc3ccc(C(F)(F)F)cc32)CC1
Out: true (1)

In: Strictly below 0.7 in CRP (Rf, control RP plate)? COc1ccnc(C[S+]([O-])c2nc3ccc(OC(F)F)cc3[nH]2)c1OC (stereo not drawn)
Out: false (0)

In: Please state whether CRP (Rf, control RP plate) is below 0.7 for CN(C)CCOC(c1ccccc1)c1ccccc1 [diphenhydramin]
Out: true (1)

In: Please determine if COc1ccc(CCN2CCC(Nc3nc4ccccc4n3Cc3ccc(F)cc3)CC2)cc1 is below 0.7 in terms of CRP (Rf, control RP plate).
Out: true (1)

In: I wonder whether NC(N)=Nc1nc(CSCCC(N)=NS(N)(=O)=O)cs1 has CRP (Rf, control RP plate) below 0.7. Can you tell?
Out: false (0)

In: Does the reported CRP (Rf, control RP plate) of the following molecule sit strictly below 0.7? CC(CN1c2ccccc2Sc2ccccc21)N(C)C (stereo not drawn)
Out: true (1)

In: Is it true that CRP (Rf, control RP plate) reported for CCN(Cc1ccncc1)C(=O)C(CO)c1ccccc1 (stereo not drawn) is less than 0.7?
Out: false (0)

In: Just wondering, is CRP (Rf, control RP plate) of C[C@]12C=CC(=O)C=C1CC[C@@H]1[C@@H]2[C@@H](O)C[C@@]2(C)[C@H]1CC[C@]2(O)C(=O)CO below 0.7?
Out: false (0)
